- Tested on: AI4 CTL
- methodNotes: 51Cr-release cytotoxicity assay, AI4 CTL against peptide-pulsed RMA-S target cells
- Assay type: cell-based, mouse
- conditionContext: RMA-S target cells, E:T ratio of 40, lower peptide concentrations (FIG. 6B); read-out: half-maximal activity, AI4 cytotoxic response
- Procedure: Cytotoxicity assays for screening of HPLC fractions and peptide libraries. AI4 CTL were generated by culturing splenocytes from NOD.AI4αβTg mice with IFN-γ-treated NIT-1 cells and 12.5 U/ml IL-2 as described (DiLorenzo et al., 2002). NY8.3 CTL were generated by culturing splenocytes from 8.3-NOD mice with mitomycin C-treated NOD splenocytes pulsed with 10 nM NRP-A7 peptide as described (DiLorenzo et al., 2002). […]
Where no end group is shown, it is not given here.
quantityName: EC50

>>> observedmeasurement("YAIENYLEL [MimA2, YAIENYLEL]")
"0.01 nM"
